# Test system: PDC 899932-113-R3-J6 complex spheroid viability;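 note: spheroids exposed to agents for seven days before readout; 100% = DMSO vehicle control wells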
# Experimental Details: Anticancer human tumor 899932-113-R3-J6-PDC patient-derived melanoma cell line growth inhibition [RAS]; active = viability on the fitted dose curve at most 10% of control; inactive = the rest
# Test Parameters: compound 0.316 µM
Outcomes you can answer with include only these: 1.0 (active), 0.0 (inactive)

In: // return assay outcome for C=CC(=O)Nc1cc(Nc2nccc(-c3cn(C)c4ccccc34)n2)c(OC)cc1N(C)CCN(C)C
Out: 0.0

In: // return assay outcome for CC(Nc1ccc2c(c1)OCCn1cc(N3C(=O)OCC3C(F)F)nc1-2)C(N)=O (centres undefined)
Out: 0.0

In: // return assay outcome for Cc1nc(N2CCC3(CC2)COC(C)C3N)c(CO)nc1Sc1ccnc(N)c1Cl (centres undefined)
Out: 0.0

In: // return assay outcome for O=C(c1ccc(F)c(F)c1Nc1ccc(I)cc1F)N1CC(O)([C@@H]2CCCCN2)C1
Out: 1.0

In: // return assay outcome for Nc1ccn(C2OC(CO)C(O)C2(F)F)c(=O)n1 (centres undefined)
Out: 0.0

In: // return assay outcome for NC1c2ccccc2OC12CCN(c1cnc3c(N4CCCc5ncccc54)n[nH]c3n1)CC2 (centres undefined)
Out: 0.0

In: // return assay outcome for CC(=O)OC12COC1CC(O)C1(C)C(=O)C(O)C3=C(C)C(OC(=O)C(O)C(NC(=O)OC(C)(C)C)c4ccccc4)CC(O)(C(OC(=O)c4ccccc4)C21)C3(C)C (centres undefined)
Out: 0.0

In: // return assay outcome for CCC(CC)c1cc(NC2CCC(N)C2)n2nccc2n1 (centres undefined)
Out: 0.0

In: // return assay outcome for C#Cc1c(F)ccc2cc(O)cc(-c3ncc4c(N5CC6CCC(C5)N6)nc(OCC56CCCN5CC(F)C6)nc4c3F)c12 (centres undefined)
Out: 0.0
